# TARGET: human SIRPα expressed on the surface of human monocyte-derived dendritic cells (human) (UniProt P78324)
# Sequence (P78324 31-504): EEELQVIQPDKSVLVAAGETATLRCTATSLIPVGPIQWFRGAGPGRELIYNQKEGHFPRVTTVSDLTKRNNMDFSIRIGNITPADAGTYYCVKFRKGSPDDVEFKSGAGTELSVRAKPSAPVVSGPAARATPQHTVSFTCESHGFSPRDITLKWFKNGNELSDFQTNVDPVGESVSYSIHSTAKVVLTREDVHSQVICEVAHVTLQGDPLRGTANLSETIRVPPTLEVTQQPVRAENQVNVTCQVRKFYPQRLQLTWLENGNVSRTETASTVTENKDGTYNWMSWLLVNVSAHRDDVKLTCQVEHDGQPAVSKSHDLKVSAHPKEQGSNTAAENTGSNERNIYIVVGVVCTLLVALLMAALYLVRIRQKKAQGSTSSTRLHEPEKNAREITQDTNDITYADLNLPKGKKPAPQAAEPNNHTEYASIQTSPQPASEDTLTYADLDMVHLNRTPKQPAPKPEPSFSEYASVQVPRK
# ASSAY PROCEDURE: flow cytometry on human monocyte-derived dendritic cells
MEASURED PROPERTY: Kd (nM)
Could you give me the number in nM? Just the number is fine.

Which Kd value belongs to OSE-172 (antibody, from another filing, V domains shown) VH: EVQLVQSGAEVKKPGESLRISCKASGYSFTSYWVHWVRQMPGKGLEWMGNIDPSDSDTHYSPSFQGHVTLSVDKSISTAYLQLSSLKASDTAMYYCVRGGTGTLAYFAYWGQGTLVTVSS VL: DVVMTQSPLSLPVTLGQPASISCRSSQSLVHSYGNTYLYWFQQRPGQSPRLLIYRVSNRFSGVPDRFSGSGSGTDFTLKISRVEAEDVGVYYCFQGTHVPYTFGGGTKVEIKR ?
0.572

Proceed to 14H2B-IgG4 S228P (antibody, V domains shown) VH: EVQLVESGGGLVQPGGSLRLSCAASGIDLSSYSMIWVRQAPGKGLEWIGIIYTGGSTDYASWAKGRFTISRDNSKNTLYLQMNSLRAEDTAVYYCARENSHDTFDPWGQGTLVTVSS VL: DIQMTQSPSSLSASVGDRVTITCQSSQSVYTNYQSWYQQKPGKAPKLLIYAASTLASGVPSRFSGSGSGTDFTLTISSLQPEDFATYYCLGSYVSSGWYYAFGGGTKVEIK
0.686

Proceed to 4E10-IgG4 S228P (antibody, V domains shown) VH: EVQLVESGGGLVQPGGSLRLSCAASGFSLSNYEMIWVRQAPGKGLEWVGIIYVSRSTHYASWAKGRFTISRDNSKNTLYLQMNSLRAEDTAVYYCGRYLASGGFNIWGQGTLVTVSS VL: DIQMTQSPSTLSASVGDRVTITCQASHNIYSNLAWYQQKPGKAPKLLIYDASKLASGVPSRFSGSGSGTEFTLTISSLQPDDFATYYCQSYYGNSYPFGGGTKVEIK
0.264
